test system: NCI-H522 lung; test: NCI tumour cell line growth inhibition, 48 h
measured-quantity: TGI

Form field: TGI recorded for O=C(N1CCOCC1)C1(c2ccccc2)CCNCC1 with NCI-H522 lung (enter value)
> 100 µM

Form field: TGI recorded for Cn1c(=O)nc2n(CCO)ccnc-2c1=O with NCI-H522 lung (enter value)
> 100 µM

Form field: TGI recorded for C/C(=N\Nc1ccc2ccccc2n1)c1ccccc1O with NCI-H522 lung (enter value)
> 100 µM

Form field: TGI recorded for COc1c(OC(C)=O)c(OC(C)=O)cc2c1-c1ccc(OC)c(=O)cc1C(NC(C)=O)CC2 (centres undefined) with NCI-H522 lung (enter value)
0.0192 µM

Form field: TGI recorded for CCc1ccc(CCC(=O)Nc2ncc(Cc3cc(Cl)ccc3Cl)s2)o1 with NCI-H522 lung (enter value)
> 50 µM

Form field: TGI recorded for C#CC[C@@H]1C[C@]2(C)[C@H]3CC[C@@H]4[C@H]5[C@H](C(=C)C)CC[C@]5(C(=O)O)CC[C@@]4(C)[C@]3(C)CC[C@H]2C(C)(C)[C@H]1O with NCI-H522 lung (enter value)
12.3 µM

Form field: TGI recorded for Brc1ccccc1/C=C\C1(c2ccccc2)OCCO1 with NCI-H522 lung (enter value)
22.6 µM

Form field: TGI recorded for Nc1ncnc2c1ncn2[C@@H]1C[C@H]1CO with NCI-H522 lung (enter value)
> 100 µM

Form field: TGI recorded for O=C(Nc1ccc(Cl)c(Cl)c1)C(=O)C(C1OC(=O)c2ccccc21)[N+](=O)[O-] (centres undefined) with NCI-H522 lung (enter value)
> 100 µM

Form field: TGI recorded for Cc1c(/C=N/NC(=O)c2ccccc2)c(=O)n(-c2ccccc2)n1C with NCI-H522 lung (enter value)
> 100 µM

Form field: TGI recorded for CC1(C)CC(=O)C(C(c2cccc(O)c2O)C2C(=O)CC(C)(C)CC2=O)C(=O)C1 with NCI-H522 lung (enter value)
> 100 µM

Form field: TGI recorded for CCOC(=O)N1CC2(C(=O)OC)C=CC1C(C(=O)OC)C2 (centres undefined) with NCI-H522 lung (enter value)
> 100 µM

Form field: TGI recorded for CCCCC(NC(=O)CC)C(=O)O (centres undefined) with NCI-H522 lung (enter value)
> 100 µM

Form field: TGI recorded for O=C(O)CN(CC(=O)O)Cc1cc2c(cc1O)Oc1cc(O)c(CN(CC(=O)O)CC(=O)O)cc1C21OC(=O)c2ccccc21 with NCI-H522 lung (enter value)
> 100 µM

Form field: TGI recorded for CN(C)CCCc1cccnc1 with NCI-H522 lung (enter value)
> 100 µM

Form field: TGI recorded for C(=N/Nc1ncnc2nc[nH]c12)/c1ccccn1 with NCI-H522 lung (enter value)
> 100 µM

Form field: TGI recorded for CC(=O)O[C@H]1C(=O)[C@@]2(C)[C@H]([C@H](OC(=O)c3ccccc3)[C@]3(O)C[C@H](OC(=O)[C@H](O)[C@@H](NC(=O)c4ccccc4)C4CCCCC4)C(C)=C1C3(C)C)[C@]1(OC(C)=O)CO[C@@H]1C[C@@H]2O with NCI-H522 lung (enter value)
0.011 µM

Form field: TGI recorded for CC(C)c1ccc2c(N=Nc3ccc(S(N)(=O)=O)cc3)c(O)[nH]c2c1 with NCI-H522 lung (enter value)
> 17.8 µM

Form field: TGI recorded for Oc1ccc2ccccc2c1-c1c(Nc2ccccc2)ccc2ccccc12 with NCI-H522 lung (enter value)
29.6 µM

* * *

test system: 786-0 renal; test: NCI tumour cell line growth inhibition, 48 h
Please go through the items and note down their TGI.

Form field: TGI recorded for COc1ccc(C2=NN(C(=O)c3ccccc3)C(O)(c3cc(F)c(Cl)cc3Cl)C2)cc1OC (stereo not given) with 786-0 renal (enter value)
> 100 µM

Form field: TGI recorded for CC(Oc1ccccc1)C(=O)NN (stereo not given) with 786-0 renal (enter value)
> 100 µM

Form field: TGI recorded for COc1ccc2c(c1)CCc1cnn(C3OC(COC(C)=O)C(OC(C)=O)C(OC(C)=O)C3OC(C)=O)c1-2 (stereo not given) with 786-0 renal (enter value)
75.6 µM

Form field: TGI recorded for Cc1cc(=O)oc2c(CNC(C)C(=O)O)c(O)ccc12 (stereo not given) with 786-0 renal (enter value)
> 100 µM

Form field: TGI recorded for COc1ccc(C(=O)/C=C2\c3ccccc3C(=O)N2C)cc1 with 786-0 renal (enter value)
> 100 µM

Form field: TGI recorded for O=C(Nc1ncc(Cc2ccccc2)s1)c1ccc2c(c1)OCCO2 with 786-0 renal (enter value)
> 100 µM

Form field: TGI recorded for CSC(=S)N/N=C/c1ccccc1 with 786-0 renal (enter value)
> 100 µM

Form field: TGI recorded for COc1ccc(C(=O)C(c2ccc(OC)cc2)C2C(=O)Oc3ccccc32)cc1 (stereo not given) with 786-0 renal (enter value)
> 100 µM

Form field: TGI recorded for CC(C)=CCC[C@](C)(O)[C@H]1CC[C@]2(C)[C@@H]1[C@H](O)C[C@@H]1[C@@]3(C)CC[C@H](O[C@@H]4O[C@H](CO)[C@@H](O)[C@H](O)[C@H]4O)C(C)(C)[C@@H]3CC[C@]12C with 786-0 renal (enter value)
36 µM

Form field: TGI recorded for COc1cc(-c2cc(/C=C/C(=O)c3ccc4c(c3)OCO4)[nH]n2)cc(OC)c1OC with 786-0 renal (enter value)
5.82 µM

Form field: TGI recorded for c1ccc2c(c1)ccc1ncccc12 with 786-0 renal (enter value)
> 100 µM

Form field: TGI recorded for COc1ccc(CN2C(=O)C(Cc3cc(OC)c(OC)c(C)c3OC)N(C(=O)OC(C)C)C(=O)/C2=C/c2cc(OC)c(OC)c(C)c2OC)cc1 (stereo not given) with 786-0 renal (enter value)
> 100 µM

Form field: TGI recorded for O=C1Nc2ccccc2C1(c1ccc(O)c(F)c1)c1ccc(O)c(F)c1 with 786-0 renal (enter value)
44.1 µM

Form field: TGI recorded for C=CCCC(O)c1ccc(C(O)CCCCCCCCCCCC)o1 (stereo not given) with 786-0 renal (enter value)
31.5 µM

Form field: TGI recorded for COc1cc(COC(=O)N2CCCCC2C(=O)O)c([N+](=O)[O-])cc1OC (stereo not given) with 786-0 renal (enter value)
> 100 µM

Form field: TGI recorded for COC(=O)CCC(=O)CC(=O)C(=O)Nc1ccc(F)cc1 with 786-0 renal (enter value)
> 100 µM

Form field: TGI recorded for O=c1n(CCCN2CCN(c3cccc(Cl)c3)CC2)nc2n1-c1ccc3ccccc3c1SC2 with 786-0 renal (enter value)
> 100 µM

Form field: TGI recorded for Cc1ccc(S(=O)(=O)NC(=O)C2(Br)S(=O)(=O)OCCOS2(=O)=O)cc1 with 786-0 renal (enter value)
> 100 µM

Form field: TGI recorded for CC(=O)c1c2c(cc3c1CC1(Cc4cc5c(cc4C1=O)CCC5)C3)CCC2 (stereo not given) with 786-0 renal (enter value)
> 100 µM

Form field: TGI recorded for O/N=C(\C=N\O)c1ccc2c(c1)Sc1ccccc1O2 with 786-0 renal (enter value)
38.6 µM

* * *

system: PC-3 prostate; assay: NCI tumour cell line growth inhibition, 48 h; in the data active = GI50 below about 0.43 µM; inactive = the rest
Please state which outcome applies, choosing from T = active, F = inactive

Which outcome did this test record for the molecule CCCCCCCCCCCCOC1C(CNC(=O)C2OC3OC(C)(C)OC3C2NC(=O)CN2CCN(c3ccccn3)CC2)OC2OC(C)(C)OC21 (stereo not given) ?
F

Which outcome did this test record for the molecule O=C(Nc1ncc(Cc2ccccc2)s1)c1ccc2c(c1)OCCO2 ?
T

Which outcome did this test record for the molecule CC(C)c1ccc2c(N=Nc3ccc(S(N)(=O)=O)cc3)c(O)[nH]c2c1 ?
F

Which outcome did this test record for the molecule COc1ccc(/C=C2\N=C(c3ccccc3)N(c3cc(C(F)(F)F)ccc3Cl)C2=O)cc1OC ?
F

Which outcome did this test record for the molecule C(=N/Nc1ncnc2nc[nH]c12)/c1ccccn1 ?
F

* * *

system: OVCAR-5 ovarian; experiment: NCI tumour cell line growth inhibition, 48 h
Please go through the items and note down their TGI.

What value of measured TGI is listed for COc1ccc2c(C)cc(N/N=C/c3sccc3C)nc2c1 ?
28.1 µM

What value of measured TGI is listed for CC(C)(C)[Si](C)(C)OCC1OC(n2cc(F)c(=O)[nH]c2=O)CC1O[Si](C)(C)C(C)(C)C (stereo unspecified) ?
33 µM

What value of measured TGI is listed for O=C(Nc1ncc(Cc2ccccc2)s1)c1ccc2c(c1)OCCO2 ?
> 100 µM

What value of measured TGI is listed for COc1ccc(-n2nnc3c(C#N)c(-c4ccccc4)c(C)n3c2=O)cc1 ?
> 100 µM

What value of measured TGI is listed for CN(C)C(=S)N/N=C\C(=N/NC(=S)N(C)C)c1ccccc1 ?
> 100 µM

What value of measured TGI is listed for Cn1c(=O)nc2n(-c3ccc(F)cc3)c3ccccc3nc-2c1=O ?
42.2 µM

What value of measured TGI is listed for Fc1ccc(-c2ncn(C3CCNCC3)c2-c2ccnc(Oc3ccccc3)n2)cc1 ?
> 25 µM

What value of measured TGI is listed for CN(C)c1ccc(/C=C/C(=O)c2ccccc2)cc1Br ?
> 100 µM

What value of measured TGI is listed for C=CCCC(O)c1ccc(C(O)CCCCCCCCCCCC)o1 (stereo unspecified) ?
41.4 µM

What value of measured TGI is listed for O=C(Nc1ccc(Cl)c(Cl)c1)C(=O)Nn1c(=S)[nH]c2ccccc2c1=O ?
> 100 µM

What value of measured TGI is listed for CC1=Nc2nc3ccccc3n2C(C)(C)C1 ?
> 100 µM

What value of measured TGI is listed for Oc1ccc2ccccc2c1-c1c(Nc2ccccc2)ccc2ccccc12 ?
> 50.1 µM

What value of measured TGI is listed for c1ccc(-c2nc3sccn3n2)cc1 ?
> 100 µM

What value of measured TGI is listed for O=C1C(c2ccc([N+](=O)[O-])cc2)=[N+]([O-])c2ccccc21 ?
47.5 µM

What value of measured TGI is listed for C[N+](C)(C)CCC(=O)N1C/C(=C\c2ccccc2)C(=O)/C(=C/c2ccccc2)C1 ?
30.6 µM

What value of measured TGI is listed for CN(C)c1ccc(/C=C(\C#N)c2cc3ccccc3n2C)cc1 ?
> 100 µM

What value of measured TGI is listed for O=C(Cn1c(C(=O)/C=C/c2ccco2)nc2ccccc21)c1ccc(Cl)cc1 ?
> 100 µM

What value of measured TGI is listed for O=C(O)CN1CCNCCN(CC(=O)O)CCNCC1 ?
> 100 µM

What value of measured TGI is listed for C/C(=N\Nc1ccc2ccccc2n1)c1ccccc1O ?
> 100 µM

What value of measured TGI is listed for COc1cc(C2C(Cl)C(=O)N2NC(=O)c2ccc(NC(C)=O)cc2)cc(Br)c1O (stereo unspecified) ?
> 100 µM

What value of measured TGI is listed for COc1ccc2nc3cc(Cl)ccc3c(NCCC(=O)OCC(O)C(O)C(O[C@H](C)C(=O)NC(C)C(=O)NC(CCC(N)=O)C(=O)OCc3ccccc3)C(C=O)NC(C)=O)c2c1 (stereo partly specified) ?
47 µM

What value of measured TGI is listed for CN(C)CCCNC(=O)c1cc(NC(=O)CCNC(=O)c2ccc3c(c2)C(=O)c2ccccc2C3=O)cn1C ?
> 100 µM

What value of measured TGI is listed for COc1nc(/C=N/NC(N)=S)nc(OC)n1 ?
> 100 µM

What value of measured TGI is listed for OCCOCCN1CCN(c2nc(N3CCCC3)c3nc(Cl)c(NCc4ccccc4)nc3n2)CC1 ?
28.9 µM

What value of measured TGI is listed for COc1cc(-c2cc(/C=C/C(=O)c3ccc4c(c3)OCO4)[nH]n2)cc(OC)c1OC ?
93.5 µM

What value of measured TGI is listed for COc1cc(C2c3cc4c(cc3OC3(O)COC(=O)C23)OCO4)cc(OC)c1OC (stereo unspecified) ?
> 100 µM

What value of measured TGI is listed for C=C1C(=O)O[C@H]2[C@H]1CC/C(COC(=O)/C=C\C(=O)NCc1ccc(Cn3c(=O)sn(-c4ccc(OC)cc4)c3=O)cc1)=C\CC[C@@]1(C)O[C@@H]21 ?
1.71 µM

What value of measured TGI is listed for O=c1n(CCCN2CCN(c3cccc(Cl)c3)CC2)nc2n1-c1ccc3ccccc3c1SC2 ?
> 100 µM

What value of measured TGI is listed for O=C(CSc1nc2ccc([N+](=O)[O-])cc2[nH]1)Nc1cccc(Cl)c1 ?
13.4 µM

What value of measured TGI is listed for CNc1nnnn1C1OC(CO)C(O)C1O (stereo unspecified) ?
> 100 µM

What value of measured TGI is listed for CC1(C)CC(=O)C(C(c2cccc(O)c2O)C2C(=O)CC(C)(C)CC2=O)C(=O)C1 ?
> 100 µM

What value of measured TGI is listed for Cn1c(N(CCO)CCO)cnc1[N+](=O)[O-] ?
> 100 µM

What value of measured TGI is listed for CCN(CC)CCCC(C)NC(=O)c1cc(-c2nccn2C)nc2ccc(C)cc12 (stereo unspecified) ?
> 100 µM

What value of measured TGI is listed for COC(=O)c1ccccc1/C=C1\Cc2cc3c(cc2C1=O)CCC3 ?
> 100 µM

What value of measured TGI is listed for C=C[C@@]1(C)CC2CC[C@]3(C)C(C)=CC(=O)CC3[C@]2(C)CC1O (stereo partly specified) ?
> 100 µM

What value of measured TGI is listed for Cn1c(=O)nc2n(CCO)ccnc-2c1=O ?
> 100 µM

What value of measured TGI is listed for CN1C[C@H]2[C@@H](C1=O)[C@H](c1ccc([N+](=O)[O-])cc1)ON2C ?
> 100 µM

What value of measured TGI is listed for C/C(=N\Nc1nc2ccccc2[nH]1)c1ccncn1 ?
> 100 µM

What value of measured TGI is listed for Nc1ccc2cc(S(=O)(=O)O)cc(O)c2c1N=Nc1ccc(NC(=O)Nc2ccc(N=Nc3c(N)ccc4cc(S(=O)(=O)O)cc(O)c34)c(S(=O)(=O)O)c2)cc1S(=O)(=O)O ?
> 100 µM

What value of measured TGI is listed for CCc1ccc(CCC(=O)Nc2ncc(Cc3cc(Cl)ccc3Cl)s2)o1 ?
> 50 µM

What value of measured TGI is listed for CN(C)CCSC(=Nc1ccccc1)N1C=COC=C1 ?
> 100 µM
